Origin of measurements: ChEMBL document CHEMBL4270502

# Target Of Assay: Serine/threonine-protein kinase PAK 1 (Mus musculus)
# Sequence (O88643 whole entry): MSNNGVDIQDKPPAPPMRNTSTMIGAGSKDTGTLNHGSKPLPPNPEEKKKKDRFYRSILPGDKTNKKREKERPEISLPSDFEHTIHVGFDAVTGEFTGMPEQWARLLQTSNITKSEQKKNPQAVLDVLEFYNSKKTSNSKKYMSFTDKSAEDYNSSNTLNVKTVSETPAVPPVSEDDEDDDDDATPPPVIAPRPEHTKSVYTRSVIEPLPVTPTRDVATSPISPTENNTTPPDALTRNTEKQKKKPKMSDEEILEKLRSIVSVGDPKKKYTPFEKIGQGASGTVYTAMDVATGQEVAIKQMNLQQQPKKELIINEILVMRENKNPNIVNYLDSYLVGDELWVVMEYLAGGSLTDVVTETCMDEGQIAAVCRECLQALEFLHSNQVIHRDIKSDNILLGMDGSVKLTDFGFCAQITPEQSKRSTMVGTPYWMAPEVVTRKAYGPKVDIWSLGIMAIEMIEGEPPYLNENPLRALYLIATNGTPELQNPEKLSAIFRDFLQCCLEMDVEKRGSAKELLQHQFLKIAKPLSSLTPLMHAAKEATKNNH
# Test Method Notes: Inhibition of PAK1 in v-Ha-RAS-transformed mouse NIH/3T3 cells incubated for 48 hrs by immunoblot analysis
Measurement Type: IC50

| Molecule | Endpoint Value |
| --- | --- |
| C/C=C1\NC(=O)[C@H]2CSSCC/C=C/[C@H](CC(=O)N[C@H](C(C)C)C(=O)N2)OC(=O)[C@H](C(C)C)NC1=O [ROMIDEPSIN] | < 1 nM |
